Tested on: Blood
Test: Biodistribution in ICR mouse blood at 5 to 10 uCi, iv after 1 hr
Assay type: ADME, organism-based
Settings: in vivo
So I've got a bunch of compounds here, and I need their Drug uptake values.
// return numeric value only (unit: % ID/g, not printed)

**Q:** Supply Drug uptake value. Item: CNc1ccc(C#Cc2ccc(OCCOCC[18F])cc2)cc1
**A:** 10.3

**Q:** Complete the entry with Drug uptake for CNc1ccc(C#Cc2ccc(OCCOCCOCC[18F])cc2)cc1
**A:** 3.22

**Q:** Supply reported Drug uptake belonging to this compound: CN(C)c1ccc(C#Cc2ccc(OCCOCCOCC[18F])cc2)cc1
**A:** 2.51

**Q:** Look up Drug uptake of CN(C)c1ccc(C#Cc2ccc(OCCOCC[18F])cc2)cc1 and report it.
**A:** 5.68

Entry source: ChEMBL document CHEMBL1139874
